Test: isobaric coefficient of expansion
Details: 308.15 K; 15000 kPa; Liquid; Micro DSCII
# reported isobaric coefficient of expansion; entries follow

- compound: "CCCCn1cc[n+](C)c1.COS(=O)(=O)[O-] [1-butyl-3-methylimidazolium methyl sulfate]"
  isobaric coefficient of expansion: "0.000533 1/K"

# query: isobaric coefficient of expansion of entry CCCCn1cc[n+](C)c1.[F][Sb-]([F])([F])([F])([F])[F] [1-butyl-3-methylimidazolium hexafluoroantimonate]
0.000604 1/K

Which isobaric coefficient of expansion value belongs to CCCC[n+]1ccn(C)c1.O=S(=O)([N-]S(=O)(=O)C(F)(F)F)C(F)(F)F ?
0.000636 1/K

Reported isobaric coefficient of expansion for CCCCn1cc[n+](C)c1.F[B-](F)(F)F [1-butyl-3-methylimidazolium tetrafluoroborate] : what is it?
0.000575 1/K

Reported isobaric coefficient of expansion for CCCCn1cc[n+](C)c1.O=S(=O)([O-])C(F)(F)F [1-butyl-3-methylimidazolium trifluoromethanesulfonate] : what is it?
0.000587 1/K
